Tested on: Bacteroides stercoris
Assay: growth AUC relative to DMSO control (median of replicates) (fraction); higher = more growth (less inhibition), active = hit call of the paper
Details: 20 µM; 24 h
Label yes (1) when growth AUC is at or above 1; anything below gets no (0).

S=C([S-])NCCNC(=S)[S-].S=C([S-])NCCNC(=S)[S-].[Mn+2].[Zn+2]: yes (1)

q: Test whether the molecule COc1nc(N)nc(NC(C)(C)C)n1 records growth AUC of 1 or higher.
a: no (0)

q: Tell me whether growth AUC is at least 1 here: CCOC(=O)c1cnn(C)c1S(=O)(=O)NC(=O)Nc1nc(OC)cc(OC)n1
a: yes (1)

q: Dear colleague, could you confirm whether O=C(Nc1ccc(O)cc1-c1ccc(Cl)cc1)c1cccnc1Cl has growth AUC at or above 1?
a: no (0)

q: growth AUC >= 1 for COc1c(Cl)ccc(Cl)c1C(=O)O ?
a: no (0)
